targetOrSystem: T1, Rhesus GIPR (rhesus, UniProt F7E1R9 22-466)
T1 sequence: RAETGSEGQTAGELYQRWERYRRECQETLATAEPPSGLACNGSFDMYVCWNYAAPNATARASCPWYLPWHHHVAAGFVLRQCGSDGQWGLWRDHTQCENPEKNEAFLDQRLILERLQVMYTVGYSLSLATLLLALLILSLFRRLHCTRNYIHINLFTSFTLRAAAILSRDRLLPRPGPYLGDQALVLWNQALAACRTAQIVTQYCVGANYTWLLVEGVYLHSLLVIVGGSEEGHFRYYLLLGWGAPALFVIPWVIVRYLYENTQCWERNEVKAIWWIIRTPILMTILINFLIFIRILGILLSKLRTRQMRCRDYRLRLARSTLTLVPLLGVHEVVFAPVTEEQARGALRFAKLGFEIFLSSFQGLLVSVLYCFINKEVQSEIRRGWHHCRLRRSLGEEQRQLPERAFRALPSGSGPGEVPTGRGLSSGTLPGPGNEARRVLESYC
assayComment: cell-based or functional assay
readoutName: Rhesus GIPR CAMP Assay (Conc. mAb @ 60% Inhibition in nM)

binder="17H11.004.001 (antibody, human IgG1, kappa, N297G, V domains shown, also called iPS:359621; iPS:359623) VH: QVQLQESGPGLVKPSETLSLTCTVSGGSISSYYWSWIRQPAGKGLEWIGRIYTSGSTNYNPSLKSRVTMSIDTSKNQFSLKLNSVTAADTAVYYCARDVAVAGFDYWGQGTLVTVSS VL: DIQMTQSPSSVSASVGDRVTITCRASQGLIIWLAWYQQKPGKAPKLLIYAASSLQSGVPSRFSGSGSGTDFTLTISSLQPEDFATYYCQQTNSFPPTFGQGTKVEIKR" resultunits=nM measvalue=0.22
binder="12H11.008 (antibody, human IgG1, kappa, N297G, V domains shown) VH: QVPLVQSGAEVKKPGASVKVSCKASGYTFTGYYIHWVRQAPGQGLEWMGWISPNNGETNYAQKFQDRVTMTRDTSISTAYMELSRLRSDDTAVYYCTREATIFGMLIVPFDYWGQGTLVTVSS VL: DIVMTQSPDSLSVSLGERATINCKSSQSVLSSSNNKNYLAWYQQKPGQPPNLLIYWTSTRDSGVPDRFSGSGSGTDFTLTINSLQAEDVAVYYCQQYYRTPWTFGQGTKVEIKR" resultunits=nM measvalue=0.56
